Values from ChEMBL document CHEMBL1155632

Tested on: Escherichia coli
Test: Genotoxicity against Escherichia coli PQ37 at 50 ug/disk
Format: toxicity, organism-based
READOUT NAME: Activity

COMPOUND | READOUT NAME | ASSAY RESULT
CC1(C)C[C@H]2[C@@H](CC[C@@]2(C)O)[C@]2(C)CC2[C@H]1OC(=O)c1cc([N+](=O)[O-])cc([N+](=O)[O-])c1 (some centres undefined) | Activity | Not Active
C/C(CO)=C1\[C@@H](O)C[C@]1(C)[C@H]1CC(C)(C)C[C@@H]1O | Activity | Not Active
C/C(C=O)=C1\C(=O)C[C@]1(C)[C@H]1CC(C)(C)CC1=O | Activity | Not Active
